Entries and their koff values follow.
Molecular target: T1, monkey Trop2 protein (Sino Biological, #90893-C08H) (monkey, UniProt A0A2K5UE71 27-274)
T1 construct: bought protein; also called monkey Trop2 protein antigen (His tag)
T1 sequence: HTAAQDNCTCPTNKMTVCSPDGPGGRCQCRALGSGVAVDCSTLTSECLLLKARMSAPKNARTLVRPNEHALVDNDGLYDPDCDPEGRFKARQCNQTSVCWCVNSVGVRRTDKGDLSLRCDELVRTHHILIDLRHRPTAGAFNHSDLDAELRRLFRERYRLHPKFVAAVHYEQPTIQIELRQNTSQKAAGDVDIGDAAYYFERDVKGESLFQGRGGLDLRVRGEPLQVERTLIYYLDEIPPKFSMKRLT
Test: BLI, Octet RED96, AHC sensor
Write down the numeric answer in s⁻¹ and omit the unit.

INSERT INTO assay_data (binder, reported_measurement) VALUES
  ('PR001160 (antibody, human IgG1, kappa, V domains shown, fully human IgG1/kappa; also called antibody No. (22)) VH: QVQLVESGGGVVQPGRSLRLSCEASGFTFSHYGMHWVRQAPGKGLEWVAVIWYDGIMKNYIESVKGRFTISRDNSKNTLYLQMNRLRAEDTAVYYCARDGGFGELNYYGLDVWGQGTTVTVSS VL: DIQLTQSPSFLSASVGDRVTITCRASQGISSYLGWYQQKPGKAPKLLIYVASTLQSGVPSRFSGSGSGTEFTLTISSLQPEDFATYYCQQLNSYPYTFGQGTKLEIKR', 0.000135);

Then there is this binder:
*Q* Entry PR001163 (antibody, human IgG1, kappa, V domains shown, fully human IgG1/kappa; also called antibody No. (24)) VH: QVQLVESGGDVVQPGRSLRLSCEASGFTFSHYGMHWVRQAPGKGLEWVAVVWYDGIKKYYVESVKGRFTISRDNSKNTLYLQMNRLRAEDTAVYYCARDGGFGELNYYGLDVWGQGTTVTVSS VL: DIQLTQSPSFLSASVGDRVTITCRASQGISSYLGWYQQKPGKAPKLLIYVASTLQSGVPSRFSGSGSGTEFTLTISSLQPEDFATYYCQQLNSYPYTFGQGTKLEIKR : reported koff = ?
*A* 0.000134

Values were extracted from patent US20240067748A1.
